Sourced from patent US20110105397A1

experiment: in vivo; conditions: mongrel, dog, iv, 4.3 ng/kg/min, [SEQ ID NO: 1] plasma concentration
property.label: level at time molar at 2 h (nM)
Supply the numeric figure in nM, leaving out any unit text.

Please fill in: level at time molar at 2 h reported for H-TKFTLSLDVPTNIMNLLFNIAKAKNLRAQAAANAHLMAQI-NH2 [SEQ ID NO: 1] = 0.057

---

experiment: Nonclinical pharmacokinetics in cynomolgus monkeys; conditions: male, cynomolgus monkey, in vivo, iv, 33.3 ng/kg/min, cyno IV infusion 3 hours, M, 33.3 ng/kg/min; read-out: t1/2 alpha
property.label: half-life (min)
Supply the numeric figure in min, leaving out any unit text.

Please fill in: half-life reported for H-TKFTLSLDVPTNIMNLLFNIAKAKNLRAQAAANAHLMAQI-NH2 [SEQ ID NO: 1] = 3.7

---

experiment: Human pharmacokinetics, heart failure subjects, 7.5-hour continuous ascending dose IV infusion; details: in vivo, infusion rate 18/36/45 ng/kg/min, N = 1
property.label: AUC(0-inf) (ng·h/mL)
Supply the numeric figure in ng·h/mL, leaving out any unit text.

Please fill in: AUC(0-inf) reported for H-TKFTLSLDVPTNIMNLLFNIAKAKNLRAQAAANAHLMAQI-NH2 [SEQ ID NO: 1] = 51.5

---

assay: in vivo; conditions: mongrel, dog, iv, 2.2 ng/kg/min, [SEQ ID NO: 1] plasma concentration
property.label: level at 1 h (ng/mL)
Supply the numeric figure in ng/mL, leaving out any unit text.

Please fill in: level at 1 h reported for H-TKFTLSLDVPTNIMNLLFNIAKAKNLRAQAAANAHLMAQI-NH2 [SEQ ID NO: 1] = 0.141

---

Biological target: human CRHR2 (Homo sapiens)
Construct: expressed in transfected cells
Sequence (Q13324 1-411): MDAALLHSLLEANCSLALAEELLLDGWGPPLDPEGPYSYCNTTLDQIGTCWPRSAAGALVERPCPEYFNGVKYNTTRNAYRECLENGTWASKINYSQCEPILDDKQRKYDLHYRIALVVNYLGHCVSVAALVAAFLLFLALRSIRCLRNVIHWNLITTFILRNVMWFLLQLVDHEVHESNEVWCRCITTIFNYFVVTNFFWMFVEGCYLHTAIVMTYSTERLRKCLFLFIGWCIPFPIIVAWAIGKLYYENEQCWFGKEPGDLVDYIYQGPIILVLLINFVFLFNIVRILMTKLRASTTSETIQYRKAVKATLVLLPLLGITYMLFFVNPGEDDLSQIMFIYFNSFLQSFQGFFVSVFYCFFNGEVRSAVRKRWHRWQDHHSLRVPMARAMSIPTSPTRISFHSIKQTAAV
Experiment: cAMP assay, h-CRHR2 transfected SK-N-MC cells
Format: cell-based
Conditions: Table 13; h-SCP control pA50 minus test compound pA50 within the same assay batch
Where no end group is shown, it is not given here.
property.label: Log DR [M]
Enter a number only.

Please fill in: Log DR [M] reported for CKFTLSLDVPTNIMNLLFNIAKAKNLRAQAAANAHLMAQI-NH2 [SEQ ID NO: 2] = 0.72

Please fill in: Log DR [M] reported for TKFTLSLDVPTNIMNLLFNIAKAKNLRAQAAANAHLMAQC-NH2 [SEQ ID NO: 41] = 2.07

Please fill in: Log DR [M] reported for TKFTLSLDVPTNIMNLLFNIAKAKNLRACAAANAHLMAQI-NH2 [SEQ ID NO: 30] = 1.28

Please fill in: Log DR [M] reported for TKFTLSLDVPTNIMNLCFNIAKAKNLRAQAAANAHLMAQI-NH2 [SEQ ID NO: 18] = 1.11

Please fill in: Log DR [M] reported for TKFTLSLDVPTNIMNLLFNICKAKNLRAQAAANAHLMAQI-NH2 [SEQ ID NO: 22] = 0.52

Please fill in: Log DR [M] reported for TKFTLSLDCPTNIMNLLFNIAKAKNLRAQAAANAHLMAQI-NH2 [SEQ ID NO: 10] = 1.30

Please fill in: Log DR [M] reported for TKFTLSCDVPTNIMNLLFNIAKAKNLRAQAAANAHLMAQI-NH2 [SEQ ID NO: 8] = 2.86

Please fill in: Log DR [M] reported for H-TKFTLSLDVPTNIMNLLFNIAKAKNLRCQAAANAHLMAQI-NH2 [SEQ ID NO: 29] = 0.00

Please fill in: Log DR [M] reported for TKFTLSLDVPTNIMNCLFNIAKAKNLRAQAAANAHLMAQI-NH2 [SEQ ID NO: 17] = 0.02

---

biological target: human CRHR2 (Homo sapiens, UniProt Q13324); construct: expressed in transfected cells; assay: cAMP assay, h-CRHR2 transfected SK-N-MC cells; assay type: cell-based; details: Table 13; h-SCP control pA50 minus test compound pA50 within the same assay batch
Where no end group is shown, it is not given here.
property.label: Log DR [M]
Enter a number only.

H-TKFTLSLDVPTNIMNLLFNIAKAKNLRAQACANAHLMAQI-NH2 [SEQ ID NO: 32] :: 0.11

Please fill in: Log DR [M] reported for TKCTLSLDVPTNIMNLLFNIAKAKNLRAQAAANAHLMAQI-NH2 [SEQ ID NO: 4] = 1.03

Please fill in: Log DR [M] reported for TKFTLSLDVPCNIMNLLFNIAKAKNLRAQAAANAHLMAQI-NH2 [SEQ ID NO: 12] = 1.72

Please fill in: Log DR [M] reported for TKFTLSLDVPTNIMNLLFCIAKAKNLRAQAAANAHLMAQI-NH2 [SEQ ID NO: 20] = 0.52

Please fill in: Log DR [M] reported for TKFTLSLDVCTNIMNLLFNIAKAKNLRAQAAANAHLMAQI-NH2 [SEQ ID NO: 11] = 0.82

Please fill in: Log DR [M] reported for H-TKFTLSLDVPTNIMNLLFNIAKAKNLRAQAACNAHLMAQI-NH2 [SEQ ID NO: 33] = 0.45

Please fill in: Log DR [M] reported for TKFTLSLDVPTNIMNLLFNIAKAKNLRAQAAANAHCMAQI-NH2 [SEQ ID NO: 37] = 1.05

Please fill in: Log DR [M] reported for TKFTLSLDVPTNIMNLLFNIACAKNLRAQAAANAHLMAQI-NH2 [SEQ ID NO: 23] = 1.13

Please fill in: Log DR [M] reported for TKFTLSLDVPTNIMNLLFNIAKACNLRAQAAANAHLMAQI-NH2 [SEQ ID NO: 25] = 0.35

---

Assay: Human pharmacokinetics, healthy subjects, 24- or 72-hour infusion of 54 ng/kg/min
Conditions: male, in vivo, 54 ng/kg, healthy subjects, 54 ng/kg/min, 72 Hours Male, mean, N = 7, read-out: CL (converted)
Protocol: In healthy subjects following a 24- or 72-hour infusion of 54 ng/kg/min of h-SCP (SEQ ID NO:1) noncompartmental pharmacokinetic analyses were performed on plasma concentrations of h-SCP (SEQ ID NO:1).
property.label: clearance (mL/min/kg)
Supply the numeric figure in mL/min/kg, leaving out any unit text.

Please fill in: clearance reported for H-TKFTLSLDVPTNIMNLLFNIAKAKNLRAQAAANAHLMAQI-NH2 [SEQ ID NO: 1] = 6.33

---

assay: in vivo; conditions: dog, iv, 86 ng/kg/min
property.label: level at 0.5 h (ng/mL)
Supply the numeric figure in ng/mL, leaving out any unit text.

Please fill in: level at 0.5 h reported for H-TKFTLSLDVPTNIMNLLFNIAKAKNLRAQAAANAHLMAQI-NH2 [SEQ ID NO: 1] = 5.14

---

experiment: Nonclinical pharmacokinetics in cynomolgus monkeys; conditions: male, cynomolgus monkey, in vivo; cyno IV infusion 3 hours, M, 33.3 ng/kg/min
property.label: AUC(0-inf) (ng·h/mL)
Supply the numeric figure in ng·h/mL, leaving out any unit text.

Please fill in: AUC(0-inf) reported for H-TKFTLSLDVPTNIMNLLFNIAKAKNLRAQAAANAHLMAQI-NH2 [SEQ ID NO: 1] = 3.47

---

Assay: Nonclinical pharmacokinetics in dogs
Set-up: species or system dog
Conditions: male, in vivo; dog IV infusion 3 hours, M, 3.33 ng/kg/min; read-out: CL
Description: A sandwich immunoassay was developed using an affinity purified goat polyclonal antibody, specific to h-SCP that was pre-coated onto a microplate with integrated electrodes. h-SCP molecules present in the sample will bind to the capture polyclonal antibody coated on the plate. […] This conjugated antibody will bind to the h-SCP molecules captured on the microplate and the quantity of analyte was determined by electrochemiluminescence. […]
property.label: clearance
// return the numeric value with its unit appended

Please fill in: clearance reported for H-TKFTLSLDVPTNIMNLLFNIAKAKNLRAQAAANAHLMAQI-NH2 [SEQ ID NO: 1] = 4.28 mL/min/kg
